Measured % Inhibition of Apyrase, listed per entry.
System: apyrase
Experiment: Screen for apyrase inhibitors (Method 1, in vitro phosphate-release absorbance assay)
Type: biochemical
Conditions: inhibitor conc at 1 mM stock, 1 hr room temperature, absorbance 630 nm; rounded average of two assay results
Protocol: Apyrase inhibitors useful as enhancers of pesticidal activity are assessed using an in vitro assay. […]

Example entries begin here.
{"columns": ["compound", "% Inhibition of Apyrase"],
 "data": [
  ["CCc1ccccc1NC(=O)c1cccc(S(=O)(=O)N2c3ccccc3CC2C)c1 (stereo not drawn)", "61%"],
  ["O=C(Nc1cccc(S(=O)(=O)Nc2ccc(Cl)cc2)c1)c1cc2c(s1)CCCC2", "61%"],
  ["O=C(NCC1(c2ccc(Br)cc2)CCOCC1)c1cccc(S(=O)(=O)Nc2ccc(Br)cc2)c1", "60%"]
]}

Inquiry: Endpoint output: % Inhibition of Apyrase of COc1ccc(NC(=O)c2cccc(S(=O)(=O)N3c4ccccc4CC3C)c2)cc1OC (stereo not drawn) . Value?
Reply text: 61%

Inquiry: What do you have for `O=C(c1cccc(S(=O)(=O)N(Cc2ccccc2)c2cccc(C(F)(F)F)c2)c1)N1CCc2ccccc21` ?
Reply text: 60%

Inquiry: Same lookup for `O=C(Nc1cccc(Cl)c1)c1ccc(NS(=O)(=O)c2ccc(F)c(F)c2)cc1` , please.
Reply text: 61%

Inquiry: Next: `O=C(c1cccc(S(=O)(=O)Nc2cccc(C(F)(F)F)c2)c1)N1CCc2ccccc21`
Reply text: 59%

###

Test system: apyrase
Assay: Screen for apyrase inhibitors (Method 1, in vitro phosphate-release absorbance assay)
Assay type: biochemical
Details: inhibitor conc at 1 mM stock, 1 hr room temperature, absorbance 630 nm; rounded average of two assay results
Each entry gets FALSE if its % Inhibition of Apyrase stays under 60%, and TRUE if its % Inhibition of Apyrase is 60% or above.

{"columns": ["compound", "group.label"],
 "data": [
  ["Cc1ccc(NC(=O)c2cccc(NS(=O)(=O)c3cccs3)c2)cc1C", "FALSE"],
  ["O=C(Nc1cccnc1)c1cccc(NS(=O)(=O)c2ccc3c(c2)OCCCO3)c1", "TRUE"],
  ["Cc1ccc(C(=O)Nc2cccc(NS(=O)(=O)c3ccccc3)c2)cc1C", "TRUE"],
  ["O=C(Nc1ccccc1N1CCCC1=O)c1cccc(S(=O)(=O)N2CCc3ccccc32)c1", "FALSE"],
  ["O=C(Nc1ccccc1F)c1cccc(S(=O)(=O)Nc2ccc3c(c2)OCO3)c1", "TRUE"]
]}

Inquiry: Could you please find out whether `Cc1nc2cc(NC(=O)c3cccc(S(=O)(=O)N4CCc5ccccc54)c3)ccc2o1` has % Inhibition of Apyrase that meets 60% or exceeds it?
Reply text: FALSE

Inquiry: And for `O=C(Nc1cccc(C(F)(F)F)c1)c1cccc(NS(=O)(=O)c2cccc(C(F)(F)F)c2)c1` ?
Reply text: TRUE

Inquiry: Same for `Cc1ccc2c(c1)CCCN2C(=O)c1cccc(S(=O)(=O)Nc2ccccc2F)c1`
Reply text: FALSE

Inquiry: Thanks! And `O=C(Nc1cccc(S(=O)(=O)N2CCOCC2)c1)c1cccc(S(=O)(=O)N2CCc3ccccc32)c1` ?
Reply text: FALSE

Inquiry: Follow-up entry: `O=C(Nc1cccc(F)c1)c1cccc(S(=O)(=O)Nc2ccc3c(c2)OCO3)c1`
Reply text: FALSE

Inquiry: Here is the next compound: `O=C(Nc1cccc(S(=O)(=O)Nc2ccccc2Cl)c1)c1ccc2ccccc2n1`
Reply text: FALSE

Inquiry: Same lookup for `COc1ccc(S(=O)(=O)N2CCc3ccccc32)cc1C(=O)Nc1ccc(C(F)(F)F)cc1` , please.
Reply text: FALSE

Inquiry: Can you handle `COc1ccccc1NS(=O)(=O)c1ccc(NC(=O)c2ccc3c(c2)OCCO3)cc1` next?
Reply text: FALSE

Inquiry: And what about the compound CC1Cc2ccccc2N1C(=O)c1cccc(S(=O)(=O)Nc2ccccc2F)c1 (stereo not drawn) ?
Reply text: FALSE

Inquiry: Next entry: `O=C(Nc1ccc(Br)cc1)c1cccc(S(=O)(=O)N2CCc3ccccc32)c1`
Reply text: TRUE

Inquiry: Same thing, different compound: `COc1ccccc1NS(=O)(=O)c1ccc(NC(=O)c2cccc(C#N)c2)cc1`
Reply text: FALSE

Inquiry: Quick one: `COc1ccccc1NS(=O)(=O)c1ccc(NC(=O)c2ccc(C#N)cc2)cc1`
Reply text: FALSE

Inquiry: Queued: `COc1ccc(C(C)(C)C)cc1NC(=O)c1ccc(S(=O)(=O)N(C)c2ccccc2OC)cc1`
Reply text: FALSE

meta.source: patent US12685312B2
